target_of_assay: EGFR wildtype (Homo sapiens)
Sequence (P00533 25-1210): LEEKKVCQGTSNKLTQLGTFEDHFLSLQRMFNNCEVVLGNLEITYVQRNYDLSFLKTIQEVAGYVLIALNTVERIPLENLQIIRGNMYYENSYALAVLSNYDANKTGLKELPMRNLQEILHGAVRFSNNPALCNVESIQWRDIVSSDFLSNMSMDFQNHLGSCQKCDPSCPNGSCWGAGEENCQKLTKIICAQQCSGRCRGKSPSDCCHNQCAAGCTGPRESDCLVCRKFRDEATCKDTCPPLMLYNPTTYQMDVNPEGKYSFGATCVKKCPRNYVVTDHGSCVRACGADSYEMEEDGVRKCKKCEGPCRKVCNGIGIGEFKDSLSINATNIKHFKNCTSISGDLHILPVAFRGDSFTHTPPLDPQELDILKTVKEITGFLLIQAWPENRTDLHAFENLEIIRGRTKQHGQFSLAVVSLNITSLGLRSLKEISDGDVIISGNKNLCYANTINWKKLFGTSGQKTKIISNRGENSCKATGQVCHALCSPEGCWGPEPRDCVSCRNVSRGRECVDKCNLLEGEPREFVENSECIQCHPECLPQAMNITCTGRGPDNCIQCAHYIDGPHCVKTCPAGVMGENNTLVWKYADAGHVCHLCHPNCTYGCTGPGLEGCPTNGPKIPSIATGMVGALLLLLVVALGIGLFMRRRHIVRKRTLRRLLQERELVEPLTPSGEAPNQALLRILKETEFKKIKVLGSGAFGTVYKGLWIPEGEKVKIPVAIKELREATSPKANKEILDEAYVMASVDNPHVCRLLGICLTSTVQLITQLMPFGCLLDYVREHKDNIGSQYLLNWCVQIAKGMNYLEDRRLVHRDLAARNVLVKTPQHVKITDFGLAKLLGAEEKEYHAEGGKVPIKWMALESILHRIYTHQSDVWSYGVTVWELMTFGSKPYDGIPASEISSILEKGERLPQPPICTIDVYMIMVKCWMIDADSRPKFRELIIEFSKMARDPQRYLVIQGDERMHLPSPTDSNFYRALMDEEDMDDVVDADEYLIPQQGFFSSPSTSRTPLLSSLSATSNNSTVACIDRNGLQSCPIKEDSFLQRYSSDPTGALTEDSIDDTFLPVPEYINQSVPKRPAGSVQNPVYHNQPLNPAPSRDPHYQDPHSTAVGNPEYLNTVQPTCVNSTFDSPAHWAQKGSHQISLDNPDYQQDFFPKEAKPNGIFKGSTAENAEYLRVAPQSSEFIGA
method_description: Biochemical EGFR kinase assay (Lance Ultra TR-FRET), wildtype
particulars: Km ATP; read-out: IC50 WT (nM) Km ATP
Procedure: Biochemical EGFR kinase assays were conducted using Lance Ultra time-resolved fluorescence resonance energy transfer (TR-FRET) technology from Perkin-Elmer. […] Each kinase reactions were incubated at room temperature for 1 hour and then stopped by the addition of 4 μL of stop solution (10 mM EDTA). […] After 60 minutes incubation at room temperature the LANCE signal was measured on an EnVision Multilabel Reader (Perkin-Elmer). […]
quantity_name: IC50 (nM)
Please reply with the bare figure in nM and do not write the unit itself.

Example results:
CN1CCN(c2ccc(-c3cnc(Nc4ccnc(-c5cnn(S(=O)(=O)C6CC6)c5)n4)cc3N[C@H]3CC[C@@H](CO)CC3)nc2)CC1 :: 0.2
CC(C)Nc1cc(Nc2ccnc(-c3cnn(S(=O)(=O)C4CC4)c3)n2)ncc1-c1cnc(C(C)(C)O)cn1 :: 22.6
CC(C)(O)c1ccnc(-c2cnc(Nc3ccnc(-c4cnn(S(=O)(=O)C5CC5)c4)n3)cc2N[C@H]2CC[C@@H](C(C)(C)O)CC2)c1 :: 5.2
C[C@]1(O)CC[C@@H](Nc2cc(Nc3ccnc(-c4cnn(S(=O)(=O)C5CC5)c4)n3)ncc2-c2ccc(N3CCC(O)CC3)cn2)CC1 :: 0.5
COC1CN(c2ccc(-c3cnc(Nc4ccnc(-c5cnn(S(=O)(=O)C6CC6)c5)n4)cc3N[C@H]3CC[C@@H](C(C)(C)O)CC3)nc2)C1 :: 0.1
CN1CCN(c2ccc(-c3cnc(Nc4ccnc(-c5cnn(S(=O)(=O)C6CC6)c5)n4)cc3N[C@H]3CC[C@@](C)(O)CC3)nc2)CC1 :: 0.2

Q: Param item = O=S(=O)(C1CC1)n1cc(-c2nccc(Nc3cc(NC4CCC(CO)CC4)c(-c4ccc(N5CCOCC5)cn4)cn3)n2)cn1 (stereo not shown) ; retrieve measured IC50.
Ans: 4.8

Q: Param item = CC(C)(O)c1cc(-c2cnc(Nc3ccnc(-c4cnn(S(=O)(=O)C5CC5)c4)n3)cc2N[C@H]2CC[C@@H](CO)CC2)ncc1F ; retrieve measured IC50.
Ans: 5.3

Q: Param item = CC(C)Nc1cc(Nc2ccnc(-c3cnn(S(=O)(=O)C4CC4)c3)n2)ncc1-c1ccc(N2CCOCC2)cn1 ; retrieve measured IC50.
Ans: 12.7

Q: Param item = CC(C)(O)c1ccc(-c2cnc(Nc3ccnc(-c4cnn(S(=O)(=O)C5CC5)c4)n3)cc2N[C@H]2CC[C@@](C)(O)CC2)nn1 ; retrieve measured IC50.
Ans: 3.6

Q: Param item = C[C@]1(O)CC[C@@H](Nc2cc(Nc3ccnc(-c4cnn(S(=O)(=O)C5CC5)c4)n3)ncc2-c2cc(N3CCC(F)(F)CC3)ccn2)CC1 ; retrieve measured IC50.
Ans: 21.3

Q: Param item = Cc1ccc(-c2cnc(Nc3ccnc(-c4cnn(S(=O)(=O)C5CC5)c4)n3)cc2N[C@H]2CC[C@@](C)(O)CC2)nc1 ; retrieve measured IC50.
Ans: 1

Q: Param item = CC(C)(O)[C@H]1CC[C@@H](Nc2cc(Nc3ccnc(-c4cnn(S(=O)(=O)C5CC5)c4)n3)ncc2-c2cnc(N3CCC(F)(F)CC3)cn2)CC1 ; retrieve measured IC50.
Ans: 84.2

Q: Param item = CC(C)(O)c1ccnc(-c2cnc(Nc3ccnc(-c4cnn(S(=O)(=O)C5CC5)c4)n3)cc2N[C@H]2CC[C@@](C)(O)CC2)c1 ; retrieve measured IC50.
Ans: 6.9
